Values from patent US4382084A

METHOD_NOTES: Acute toxicity in mice
ASSAY_SETUP: mouse, in vivo, sc, sub-cutaneous route
Each entry below carries its reported LD50.

| COMPOUND | LD50 |
| --- | --- |
| C=CCN(CC=C)C/C=C1\O[C@@H]2CC(=O)N2[C@H]1C(=O)OCc1ccccc1 [Example 8, Benzyl diallylaminodeoxyclavulanate] | > 500 mg/kg |

compound CCCN(C/C=C1\O[C@@H]2CC(=O)N2[C@H]1C(=O)O)CCC [Example 12] , LD50 observed: > 500 mg/kg

----------
Property: LD50; scope: individual compounds
METHOD_NOTES: Acute toxicity in mice
ASSAY_SETUP: mouse, in vivo, oral route

| COMPOUND | VALUE_MEASURED |
| --- | --- |
| C=CCN(CC=C)C/C=C1\O[C@@H]2CC(=O)N2[C@H]1C(=O)OCc1ccccc1 [Example 8, Benzyl diallylaminodeoxyclavulanate] | > 500 mg/kg |

Let's switch to this compound now.
// LD50 value for CCCN(C/C=C1\O[C@@H]2CC(=O)N2[C@H]1C(=O)O)CCC : > 500 mg/kg
